Subject Of Test: T1, human MSLN-R3 protein expressed on HEK293T cells (HEK293T-hMSLN-R3) (human, UniProt Q13421 487-606)
T1 construct: C-terminal limit uncertain
Protocol: FACS on HEK293T-hMSLN-R3 cells;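 also: chimeric antibodies incubated with cells on ice for 2 h, binding read by flow cytometry as mean fluorescence intensity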
Experimental Readout: Maximum mean fluorescence intensity
// keep it numeric: no unit symbol after the value

# Binder, Maximum mean fluorescence intensity
records = [
    ("S009-F8-22.23 (antibody, human IgG1, kappa, V domains shown, human-murine chimeric antibody, human IgG1/kappa constant regions) VH: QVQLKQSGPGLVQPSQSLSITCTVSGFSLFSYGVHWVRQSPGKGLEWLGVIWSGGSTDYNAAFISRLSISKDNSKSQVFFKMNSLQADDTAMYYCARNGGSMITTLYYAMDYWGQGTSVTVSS VL: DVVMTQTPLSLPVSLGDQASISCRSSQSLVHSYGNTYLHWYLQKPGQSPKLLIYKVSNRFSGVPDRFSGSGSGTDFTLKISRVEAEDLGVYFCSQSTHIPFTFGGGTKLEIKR", 404),
]

Fill in the blank: the reported Maximum mean fluorescence intensity of S009-F8-36.12 (antibody, human IgG1, kappa, V domains shown, human-murine chimeric antibody, human IgG1/kappa constant regions) VH: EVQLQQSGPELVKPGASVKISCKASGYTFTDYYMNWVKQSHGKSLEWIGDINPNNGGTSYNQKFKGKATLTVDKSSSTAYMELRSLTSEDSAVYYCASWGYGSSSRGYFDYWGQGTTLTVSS VL: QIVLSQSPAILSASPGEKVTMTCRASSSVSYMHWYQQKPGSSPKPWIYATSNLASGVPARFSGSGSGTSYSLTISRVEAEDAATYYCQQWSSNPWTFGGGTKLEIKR is ____.
7970

Entry source: patent US20250250357A1
